# assay text: in vitro
# test conditions: rat, gh3-tre-luc cells, AC50 (uM) modified / 1000, Tox21_110001=Tox21_201634; viability, 1 nM T3 present, 24 h
measurement kind: CC50 at 24 h

Recorded CC50 at 24 h of CCOP(=S)(OCC)SCSC(C)(C)C [Terbufos] , please.
> 90 µM

----------
# Tested on: GH3-TRE-Luc cell line
# test conditions: read-out: AC50 (uM) modified / 1000; Tox21_110001=Tox21_202521; viability, 1 nM T3 present, 24 h
Structures can show the parent of a compound that is named as a salt.
measurement kind: CC50
Express the reported value numerically, then name its unit.

Recorded CC50 of CN(C)c1ccc(C(=C2C=CC(=[N+](C)C)C=C2)c2ccccc2)cc1 [Malachite green oxalate] , please.
0.0943 µM

----------
# Tested on: GH3-TRE-Luc cell line
# test conditions: read-out: AC50 (uM) modified / 1000; Tox21_110001=Tox21_302067; viability, 1 nM T3 present, 24 h
measurement kind: CC50 (µM)
Numbers only, in µM.

Recorded CC50 of CCCCCCCCCCCCCC[N+](C)(C)C [Tetradonium bromide] , please.
8.21

----------
# assay text: in vitro
# test conditions: rat, gh3-tre-luc cells, AC50 (uM) modified / 1000
Where a name gives a salt, the structure may show the parent alone.
measurement kind: CC50 at 24 h (µM)
Give bare numbers, in µM.

molecule | measured result
C=CC(=O)OCCCCCCOC(=O)C=C [1,6-Hexanediol diacrylate] | 57.6

For each listed entry, give its CC50 at 24 h.
1. O=C1NCCN1CCN1CCC(c2cn(-c3ccc(F)cc3)c3ccc(Cl)cc23)CC1
2. COc1ccc(N=Nc2cc(C)c(N=Nc3ccc(S(=O)(=O)O)cc3)cc2OC)cc1
3. OCCN1CCN(CCCN2c3ccccc3C=Cc3ccccc32)CC1 [Opipramol dihydrochloride]

5.55
64.4
6.78

For each listed entry, give its CC50 at 24 h.
1. CCCCCCCCCCCCOCCOS(=O)(=O)O
2. O=C(O)c1ccc(-n2nc(-c3ccccc3O)nc2-c2ccccc2O)cc1

41
41.8

----------
# assay text: in vitro
# test conditions: rat, gh3-tre-luc cells, AC50 (uM) modified / 1000
Structures can show the parent of a compound that is named as a salt.
measurement kind: CC50 at 24 h

compound | measured result
Cc1cc(O)c2c(O)c3c(O)cccc3cc2c1 | > 50 µM

For each listed entry, give its CC50 at 24 h.
1. CCC(=O)C(=O)CC
2. NS(=O)(=O)c1cc(C(=O)O)cc(N2CCCC2)c1Oc1ccccc1 [Piretanide]

> 100 µM
> 20 µM

For each listed entry, give its CC50 at 24 h.
1. CCNS(=O)(=O)c1ccc(C)cc1 [N-Ethyl-4-methylbenzenesulfonamide]
2. CC(=O)/C=C/[C@H]1C(C)=CC[C@@H](C)C1(C)C
3. O=C1CCCN1
4. Cc1cc2c(s1)Nc1ccccc1N=C2N1CCN(C)CC1
5. CCCCc1nc2cccnc2n1Cc1ccc(-c2ccccc2-c2nnn[nH]2)cc1

1: > 90 µM; 2: > 90 µM; 3: > 90 µM; 4: 15.7 µM; 5: 55.3 µM

For each listed entry, give its CC50 at 24 h.
1. Nc1ncnc2c1ncn2[C@@H]1O[C@H](COP(=O)(O)OP(=O)(O)OP(=O)(O)O)[C@@H](O)[C@H]1O [Adenosine triphosphate]
2. O=C(O)C(Cl)(Cl)Cl
3. FC(F)(F)C(=NOCC1OCCO1)c1ccc(Cl)cc1
4. O=C(C(=O)c1ccccc1)c1ccccc1
5. CN1CCC(=C2c3ccccc3C=Cc3ccccc32)CC1

> 50 µM
> 90 µM
> 90 µM
> 90 µM
12.2 µM

For each listed entry, give its CC50 at 24 h.
1. CO[C@@]1(NC(=O)CSCC#N)C(=O)N2C(C(=O)O)=C(CSc3nnnn3C)CS[C@@H]21 [Cefmetazole sodium]
2. CCC(O)c1ccccc1 (centres unmarked)
3. O=C1OC(=O)c2cccc3cccc1c23
4. C#C[C@]1(O)CC[C@H]2[C@@H]3CCc4cc(OC5CCCC5)ccc4[C@H]3CC[C@@]21C
5. CCc1ccc(CCOc2ccc(CC3SC(=O)NC3=O)cc2)nc1 (centres unmarked) [Pioglitazone hydrochloride]
6. CCCCCc1ccco1
7. O=C(NOCC1CC1)c1ccc(F)c(F)c1Nc1ccc(I)cc1Cl
8. CC(=O)Oc1cccc2c1C(=O)c1c(OC(C)=O)cc(C(=O)O)cc1C2=O

> 50 µM
> 50 µM
> 90 µM
16 µM
> 90 µM
> 60 µM
21.1 µM
> 50 µM

For each listed entry, give its CC50 at 24 h.
1. O=C(O)c1ccc2[nH]cc(CCCCN3CC=C(c4ccccc4)CC3)c2c1
2. Cn1cc(NC(=O)c2cc(NC(=O)c3cc(NC=O)cn3C)cn2C)cc1C(=O)NCCC(=N)N
3. N=C1N=C(N)c2ccccc21

["> 50 µM", "> 50 µM", "35.8 µM"]

For each listed entry, give its CC50 at 24 h.
1. CC(C)C(C(=O)OC(C#N)c1cccc(Oc2ccccc2)c1)c1ccc(Cl)cc1 (centres unmarked) [Fenvalerate]
2. CCCCN1CCCC1C(=O)Nc1c(C)cc(C)cc1C (centres unmarked)
3. Cc1ccc(N)cc1C
4. Cc1ccc(N(CC2=NCCN2)c2cccc(O)c2)cc1
5. CC1(C)S[C@@H]2[C@H](NC(=O)COc3ccccc3)C(=O)N2[C@H]1C(=O)O
6. CCn1c2ccccc2c2cc(N)ccc21 [3-Amino-9-ethylcarbazole hydrochloride]
7. O=C(O)c1cc(Br)c(O)c(Br)c1 [3,5-Dibromo-4-hydroxybenzoic acid]
8. CC(C)=CCC[C@H](C)CCO [(S)-(-)-beta-Citronellol]

> 90 µM
> 50 µM
> 90 µM
45.1 µM
> 90 µM
> 90 µM
> 90 µM
> 90 µM

For each listed entry, give its CC50 at 24 h.
1. COc1ccc(Cl)cc1C(=O)NCCc1ccc(S(=O)(=O)NC(=O)NC2CCCCC2)cc1 [Glybenclamide]
2. O=C(c1ccccc1)c1ccc(O)cc1O [2,4-Dihydroxybenzophenone]
3. CCO/C=C1\N=C(c2ccccc2)OC1=O
4. CC(C)(O)C(=O)c1ccccc1 [2-Hydroxy-2-methylpropiophenone]
5. Nc1ccn(C[C@@H](CO)OCP(=O)(O)O)c(=O)n1
6. Nc1ccc(S(=O)(=O)Nc2ncccn2)cc1

1. > 90 µM
2. > 90 µM
3. 64.5 µM
4. > 90 µM
5. > 50 µM
6. > 20 µM

----------
# assay text: in vitro
# test conditions: rat, gh3-tre-luc cells, AC50 (uM) modified / 1000, Tox21_110001=Tox21_202294; viability, 1 nM T3 present, 24 h
measurement kind: CC50 at 24 h

Recorded CC50 at 24 h of CCOP(=S)(OCC)SCn1c(=O)oc2cc(Cl)ccc21 [Phosalone] , please.
> 100 µM

----------
# assay text: in vitro
# test conditions: rat, gh3-tre-luc cells, AC50 (uM) modified / 1000, Tox21_110001=Tox21_400046; viability, 1 nM T3 present, 24 h
measurement kind: CC50 at 24 h

Recorded CC50 at 24 h of Oc1ccc(Cl)cc1Cc1ccccc1 [Clorophene] , please.
61.9 µM

----------
# System: GH3-TRE-Luc cell line
# test conditions: read-out: AC50 (uM) modified / 1000; Tox21_110001=Tox21_113574; viability, 1 nM T3 present, 24 h
Where a name gives a salt, the structure may show the parent alone.
measurement kind: CC50 (µM)
Answers are plain numbers, in µM.

Recorded CC50 of CCc1nn(CCCN2CCN(c3cccc(Cl)c3)CC2)c(=O)n1CCOc1ccccc1 [Nefazodone hydrochloride] , please.
23.6

----------
Give measured CC50 at 24 h for each item. Keep answers brief.
# assay text: in vitro
# test conditions: rat, gh3-tre-luc cells, AC50 (uM) modified / 1000
Counter-ions that a name gives are not always drawn.

// worked examples, CC50 at 24 h included
compound | CC50 at 24 h
Cn1cnc2c1c(=O)[nH]c(=O)n2C | > 40 µM
OC1CCC(C2CCCCC2)CC1 (centres unmarked) | > 90 µM
CCCN[C@H]1CCc2nc(N)sc2C1 [Pramipexole dihydrochloride monohydrate] | > 100 µM
ClCCOCCCl | > 90 µM
CC(C)COCC(CN(Cc1ccccc1)c1ccccc1)N1CCCC1 (centres unmarked) | 9.16 µM

For each listed entry, give its CC50 at 24 h.
1. CCN(CC)CCNC(=O)COc1ccc(Cl)cc1 [Clofexamide]
2. c1ccc(CCCc2ccccn2)cc1
3. O=C(OCc1ccccc1)c1cccnc1 [Benzyl nicotinate]
4. O=C(O)CSCC(=O)NC1CCSC1=O (centres unmarked)
5. O=C1C=CC(=O)N1c1ccccc1
6. O=C(O)[C@H]1/C(=C/CO)O[C@@H]2CC(=O)N21 [Clavulanate lithium]

1: > 50 µM; 2: > 90 µM; 3: > 50 µM; 4: > 50 µM; 5: 5.48 µM; 6: > 50 µM
